- Method: qHTS for Inhibitors of the Functional Ribonucleoprotein Complex (vRNP) of Lassa (LASV) Arenavirus: LASV Primary Screen - GLuc reporter signal (AID 1347082); also: nearly all actives have a fitted effect of over 60% in size
- Assay context: LASV minigenome vRNP, Gaussia luciferase reporter; series mostly up to 57.5 µM
Inconclusive results are not listed. Active and inactive are the calls of the source. Calls follow the shape of the full dose curve; tested in HEK293 reporter line.
Classes used: active, inactive

# Molecule, Cat
data = [
    ("CC1(C)C(N(O)C(=O)Nc2ccc(Cl)cc2)N(c2ccc(Cl)cc2)C(=O)N1CC(=O)NN=CC=Cc1ccc([N+](=O)[O-])o1 (stereo not given)", "inactive"),
    ("CC[C@H]1CN2CCc3cc(OC)c(OC)cc3[C@H]2C[C@@H]1C[C@@H]1NCCc2cc(OC)c(OC)cc21", "active"),
    ("CC1(C)C[C@H](O)[C@@]23C[C@@H](OC2=O)[C@]2(C)C(=CCC4[C@@]5(C)CC[C@H](O)C(C)(C)C5CC[C@]42C)[C@@H]3C1 (stereo not given in full)", "inactive"),
    ("C=CC1CN2CCC1CC2C(O)c1ccnc2ccccc12 (stereo not given)", "inactive"),
    ("CCC(CC)C(=O)O", "inactive"),
    ("N=c1ccn2c(n1)O[C@H]1[C@@H](O)[C@@H](CO)O[C@H]12", "inactive"),
    ("CC(=O)c1ccc[nH]1", "inactive"),
    ("C[C@H]1CCC[C@@H](O)CCC/C=C/c2cc(O)cc(O)c2C(=O)O1", "inactive"),
    ("c1coc(Cn2cccc2)c1", "inactive"),
    ("CCCCCCOC(=O)CCC", "inactive"),
]

---

- Method: qHTS for Inhibitors of the Functional Ribonucleoprotein Complex (vRNP) of Lymphocytic Choriomeningitis Arenaviruses (LCMV): Viability assay - alamar blue signal for LCMV Primary Screen (AID 1347085); also: nearly all actives have a fitted effect of over 80% in size
- Assay context: alamar blue viability counter-screen, LCMV vRNP screen cells; series mostly up to 57.5 µM
Records with an inconclusive call do not appear. Activity calls are given as the source filed them. Calls come from the whole dose curve; tested in HEK293 reporter line.
Outcome codes: 1 (yes) (active), 0 (no) (inactive)

# Molecule, Cat
rows = [
    ("CNCCO", "0 (no)"),
    ("C[C@]12CC[C@H](O)CC1=CCC1C2CC[C@@]2(C)C1C[C@@H](O)[C@@H]2O (some centres undefined)", "0 (no)"),
    ("CC12C=CC(=O)C=C1CCC1C2CCC2(C)C(C(=O)CO)CCC12 (centres undefined)", "0 (no)"),
    ("CN(C)c1ccc2cc(C(=O)N[C@@H](CCCN=C(N)CCl)C(=O)NCc3ccccc3)ccc2c1", "1 (yes)"),
    ("COc1c2c(nc3occc13)C(CC=C(C)C)(OC)C(OC(C)=O)CC2 (centres undefined)", "0 (no)"),
    ("CCn1cc(-c2ccnc3[nH]c(-c4cccc(CN(C)C)c4)cc23)c(-c2ccc(NC(=O)N(C)C)cc2)n1", "1 (yes)"),
    ("COc1c2c(c(CCC(=O)O)c3c1C=CC(C)(C)O3)OC(C)(C)C=C2", "0 (no)"),
    ("CCCCCCCCCCCCCCCC(=O)OC(CO)CO", "0 (no)"),
    ("N[C@H](CO)C(=O)O", "0 (no)"),
]

---

- Test system: HaCat
- Method: Cytotoxic Profiling of Annotated Libraries Using Quantitative High-Throughput Screening (AID 1296008); also: nearly all actives have a fitted effect of over 60% in size
- Assay context: Five cell lines viability, CellTiter-Glo ATP luminescence, 48-72 h
Results filed as inconclusive are left out. Calls of active or inactive are those of the source. Calls come from the whole dose curve; as a rule, active = well fitted inhibition curve with a large enough effect; inconclusive = small, poorly fitted or top-dose-only effect; inactive = flat fitted curve, though single readings scatter.
Labels: yes (1) for active, no (0) for inactive

# Molecule, Target system, Cat
measured = [
    ("COc1ccc2[nH]c(-c3ccccc3)c(CCN(C)C)c2c1", "HaCat", "no (0)"),
    ("CC(=O)OC[C@]12C[C@H](OC(=O)CC(C)C)C(C)=C[C@H]1O[C@@H]1[C@H](O)[C@@H](OC(C)=O)[C@@]2(C)[C@@]12CO2", "HaCat", "yes (1)"),
    ("Cc1ncc(OC[C@@]2(c3cccc(F)c3)C[C@H]2C(=O)Nc2ccc(F)cn2)c(C)n1", "HaCat", "no (0)"),
    ("C/C=C(\\C)C(=O)OC1C2C3(C)CCC(OC4CC(OC)C(OC5OC(C)C(O)C(OC)C5O)C(C)O4)CC3CCC23OC32CCC(C(C)=O)C2(C)C1OC(=O)/C(C)=C/C (configuration not stated)", "HaCat", "no (0)"),
    ("CC(=O)OC[C@]12C[C@H](O)C(C)=C[C@H]1O[C@@H]1[C@H](O)[C@@H](OC(C)=O)[C@@]2(C)[C@]12CO2", "HaCat", "yes (1)"),
    ("C/C=C(\\C)C(=O)O[C@@H]1[C@@H](C)[C@]2(O)C3C=C(C)C(=O)[C@@]3(O)CC(CO)=C[C@H]2C2C(C)(C)[C@@]21OC(=O)C(C)CC (some centres not stated)", "HaCat", "no (0)"),
    ("CC(O)(c1ccccc1)C(Cc1ccc(Cl)cc1)n1cncn1 (configuration not stated)", "HaCat", "no (0)"),
    ("CC[C@@]1(O)C(=O)OCc2c1cc1n(c2=O)Cc2cc3c(OC)cccc3nc2-1", "HaCat", "yes (1)"),
    ("CC1CCCCCC(=O)c2c(O)cc(O)cc2CC(=O)O1 (configuration not stated)", "HaCat", "no (0)"),
    ("CCCCn1cc(C(=O)c2cccc3ccccc23)c2ccccc21", "HaCat", "no (0)"),
    ("COCC(C(=O)OC1CC2CCC(C1)N2C)c1ccccc1 (configuration not stated)", "HaCat", "no (0)"),
    ("C[C@H]1CCC/C=C/C2C[C@H](O)C[C@H]2[C@H](O)/C=C/C(=O)O1 (some centres not stated)", "HaCat", "yes (1)"),
    ("COC1CC(O[C@H]2CC[C@]3(C=O)C4CC[C@]5(C)[C@@H](C6=CC(=O)OC6)CC[C@]5(O)[C@@H]4CC[C@@H]3C2)OC(C)C1O[C@@H]1O[C@H](CO)[C@@H](O[C@@H]2O[C@H](CO)[C@@H](O)[C@H](O)[C@H]2O)[C@H](O)[C@H]1O (some centres not stated)", "HaCat", "yes (1)"),
    ("C=C1[C@@H](C)C2[C@H](Cc3ccccc3)NC(=O)[C@@]23C(/C=C/C[C@H](C)C[C@@](C)(O)/C=C/[C@@H]3OC(C)=O)[C@@H]1O (some centres not stated)", "HaCat", "yes (1)"),
    ("COC1CC(O[C@H]2CC[C@]3(C)C4CC[C@]5(C)[C@@H](C6=CC(=O)OC6)[C@@H](OC(C)=O)C[C@]5(O)C4CC[C@@H]3C2)OC(C)C1O[C@@H]1O[C@H](CO)[C@@H](O)[C@H](O)[C@H]1O (some centres not stated)", "HaCat", "yes (1)"),
    ("Clc1ccc([C@]23CNC[C@H]2C3)cc1Cl", "HaCat", "no (0)"),
    ("CC(=O)OC[C@]12C[C@H](OC(=O)CC(C)C)C(C)=C[C@H]1O[C@@H]1[C@H](O)[C@@H](O)[C@@]2(C)[C@]12CO2", "HaCat", "yes (1)"),
    ("C=C1[C@@]23C(=O)O[C@H](C)[C@]24O[C@@]2(C(=C)[C@]5(C=CC(=O)OC5(C)C)CC[C@]32C)[C@H](O)[C@@]1(C)OC4=O", "HaCat", "no (0)"),
    ("COC1CC(OC2CCC3(C=O)C(CCC4C3CCC3(C)C(C5=CC(=O)OC5)CCC43O)C2)OC(C)C1O (configuration not stated)", "HaCat", "yes (1)"),
    ("CC1=CC2(O)/C=C/C(C)(O)C(O)C(O)/C=C/C(=O)OC23C(=O)NC(CC(C)C)C3C1C (configuration not stated)", "HaCat", "no (0)"),
    ("O=C(C[C@@H]1NCCC[C@H]1O)Cn1cnc2ccccc2c1=O", "HaCat", "yes (1)"),
    ("COc1cccc(NCC(F)Cn2c3ccc(Br)cc3c3cc(Br)ccc32)c1 (configuration not stated)", "HaCat", "yes (1)"),
]

These data points were gathered from PubChem BioAssay (NCATS).
